// reported λmax values (DHHB) per item
Assay: UV filter performance: wavelength of maximum absorbance of DHHB in emollient
Assay type: physicochemical
Settings: DHHB dissolved in the listed emollient; UV/Vis 290 to 400nm, 1 cm cuvette
Structures can show the parent of a compound that is named as a salt.
Numbers only; they are read as nm.

These recorded examples may help you get a feel for the data.
CCCCOC(=O)CC(O)(CC(=O)OCCCC)C(=O)OCCCC [tributyl citrate]
352
CC(C)OC(=O)CCCCCCCCC(=O)OC(C)C [diisopropyl sebacate]
350
CCCCOC(=O)CCCCC(=O)OCCCC [dibutyl adipate]
351
O=C(OCCc1ccccc1)c1ccccc1 [phenethyl benzoate]
355
CCCCCCCCCCC(CO)CCCCCCCC (stereo not shown)
349
CC(C)OC(=O)CCCCC(=O)OC(C)C [diisopropyl adipate]
351

Now consider a different compound.
In: Returns the measured λmax values (DHHB) for the input compound. Input: CCOC(=O)CC(O)(CC(=O)OCC)C(=O)OCC [triethyl citrate]
Out: 353

----------
Quick reference: λmax values (BMDBM) of the listed items.
Experiment: UV filter performance: wavelength of maximum absorbance of BMDBM in emollient
Type: physicochemical
Conditions: BMDBM dissolved in the listed emollient; UV/Vis 290 to 400nm, 1 cm cuvette
Counter-ions that a name gives are not always drawn.
// note: answer is a bare numeric in nm

Some solved entries appear below for comparison.
O=C(OCCc1ccccc1)c1ccccc1 [phenethyl benzoate]
362
CCCCCCCCCCC(CO)CCCCCCCC (stereo not shown)
357
CC(C)OC(=O)CCCCC(=O)OC(C)C [diisopropyl adipate]
357
CCOC(=O)CC(O)(CC(=O)OCC)C(=O)OCC [triethyl citrate]
359
CC(C)OC(=O)CCCCCCCCC(=O)OC(C)C [diisopropyl sebacate]
357

In: // query λmax values (BMDBM) value for entry CCCCCCCCCCCCCC(=O)OC(C)C [isopropyl myristate]
Out: 357

In: Query: λmax values (BMDBM); subject: CCCCOC(=O)CC(O)(CC(=O)OCCCC)C(=O)OCCCC [tributyl citrate]
Out: 359

----------
Experiment: Measurement of interfacial tension (polarity index) of emollients
Type: physicochemical
Details: interfacial tension between emollient and water, Tensimat Densimat TD2000
Counter-ions that a name gives are not always drawn.
Listing: polarity index of selected compounds
Entry rule: numbers only, all in mN/m.

Answered cases to consult:
CCCCCCCCCCC(CO)CCCCCCCC (stereo not shown) [octyldodecanol]
25
O=C(OCCc1ccccc1)c1ccccc1 [phenethyl benzoate]
19
CCCCOC(=O)CC(O)(CC(=O)OCCCC)C(=O)OCCCC [tributyl citrate]
10

Attention now turns to another entry.
In: Could you tell me which polarity index is on file for CC(C)OC(=O)CCCCC(=O)OC(C)C [diisopropyl adipate] ?
Out: 12
